- assay target: adenosine A2A receptor (hA2AR) (Homo sapiens)
- Sequence (P29274 whole entry): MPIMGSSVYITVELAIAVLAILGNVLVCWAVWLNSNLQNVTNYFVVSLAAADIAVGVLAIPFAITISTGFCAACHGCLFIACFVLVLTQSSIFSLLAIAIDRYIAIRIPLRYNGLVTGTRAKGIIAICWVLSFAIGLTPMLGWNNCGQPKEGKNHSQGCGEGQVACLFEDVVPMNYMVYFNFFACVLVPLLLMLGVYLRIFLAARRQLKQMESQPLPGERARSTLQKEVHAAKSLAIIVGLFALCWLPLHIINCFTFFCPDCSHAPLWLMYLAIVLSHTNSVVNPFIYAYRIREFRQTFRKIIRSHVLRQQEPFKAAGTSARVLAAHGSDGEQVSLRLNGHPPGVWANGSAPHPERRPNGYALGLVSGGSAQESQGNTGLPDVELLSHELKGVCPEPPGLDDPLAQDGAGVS
parameter: Ki (nM)
// return numeric value only (unit: nM, not printed)

Ask | Query: Ki; subject: `Nc1nc2c(cnn2CCCc2ccc(OCCF)cc2)c2nc(-c3ccco3)nn12`
Reply | 0.6

---

- assay target: adenosine A1 receptor (hA1R) (Homo sapiens)
- Sequence (P30542 whole entry): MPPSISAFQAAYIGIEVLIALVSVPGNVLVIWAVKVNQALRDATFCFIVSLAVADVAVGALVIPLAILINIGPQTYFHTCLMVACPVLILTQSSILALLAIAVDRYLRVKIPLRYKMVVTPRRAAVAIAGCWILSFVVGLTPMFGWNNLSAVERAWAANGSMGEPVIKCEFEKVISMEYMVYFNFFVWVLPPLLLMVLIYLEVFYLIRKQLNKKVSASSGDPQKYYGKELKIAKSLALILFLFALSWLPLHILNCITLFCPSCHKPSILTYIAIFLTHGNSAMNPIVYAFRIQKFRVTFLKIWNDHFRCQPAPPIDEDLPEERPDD
parameter: Ki (nM)
// return numeric value only (unit: nM, not printed)

Ask | Query: Ki; subject: Nc1nc2c(cnn2CCCc2ccc(OCCF)cc2)c2nc(-c3ccco3)nn12 [FESCH]
Reply | 203
